# pEC50 per record follows
# tgt: T1, Recombinant Human B7-H3 Fc chimera Protein (Rndsystem, Cat #1027-B3-100) (human, UniProt Q5ZPR3 29-245)
# T1 chain: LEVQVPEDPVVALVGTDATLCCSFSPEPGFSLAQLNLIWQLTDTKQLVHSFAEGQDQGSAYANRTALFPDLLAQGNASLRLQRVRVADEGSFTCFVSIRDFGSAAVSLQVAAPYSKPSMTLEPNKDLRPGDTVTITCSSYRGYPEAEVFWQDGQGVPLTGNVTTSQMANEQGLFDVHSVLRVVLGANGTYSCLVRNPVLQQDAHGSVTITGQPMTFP
# procedure-summary: ELISA
Please express pEC50 as -log10 of the molar concentration.

Please review the entries below; each comes with its answer.
binder="#8 antibody (antibody, V domains shown) VH: EVQLLESGGGLVQPGSSLRLSCAASGFTFSSYWISWVRQAPGKGLEWVSEISPSGNTNYNPSLKSRFTISRDNSKNTLYLQMNSLRAEDTAVYYCAREVGDLLDYWGQGTLVTVSS VL: QSVLTQPPSASGTPGQRVTISCSGSNIGNNYVSWYQQLPGTAPKLLIYQDSKRPSGVPDRFSGSKSGTSASLAISGLRSEDEADYYCLVWDRSSDHFVFGGGTKLTVL" result=9.20
binder="#2 antibody (antibody, V domains shown) VH: EVQLLESGGGLVQPGGSLRLSCAASGFTFSAYYMIWVRQAPGKGLEWVSITNPSGGVTSYAQKFQGRFTISRDNSKNTLYLQMNSLRAEDTAVYYCARVGGRGFDIWGQGTLVTVSS VL: EIVLTQSPGTLSLSPGERATLSCHASQGISNYVAWYQQKPGQAPRLLIYDASNRATGIPDRFSGSGSGTDFTLTISHLEPEDFAVYYCQQSYSTLLTFGQGTKVEIK" result=9.38

--- query ---
Query block: Please give the documented pEC50 of #7 antibody (antibody, V domains shown) VH: EVQLLESGGGLVQPGGSLRLSCAASGFTFSNFWIGWVRQAPGKGLEWVSWINPPGSITSYADSVKGRFTISRDNSKDTLYLQMNSLRAEDTAVYYCAREVGDVLDYWGQGTLVTVSS VL: QSVLTQPPSASGTPGQRVTISCTGTSSDIGRYNYVSWYQQLPGTAPKLLIYRNTQRPSGVPDRFSGSKSGTSASLAISGLRSEDEADYYCGTWDSSLNAYVFGGGTKLTVL
Result block: 8.74
